readout: melting point

Below are worked cases with known answers.
CCNC(C)(C)c1ccc(Nc2cc(-c3cccc(-n4ncc5cc(C(C)(C)C)cc(F)c5c4=O)c3CO)cn(C)c2=O)nc1 : 195 to 200 °C
CN1CC(Oc2ccc(Nc3cc(-c4cccc(-n5ncc6cc(C(C)(C)C)cc(F)c6c5=O)c4CO)cn(C)c3=O)nc2)C1 : > 300 °C

As a next step, examine the compound that follows.
Looking up CN1CCN(Cc2ccc(Nc3cc(-c4cccc(-n5ncc6cc(C(C)(C)C)cc(F)c6c5=O)c4CO)cn(C)c3=O)nc2)CC1 , I see its melting point listed as 235 to 238 °C

* * *

- Test system: B cell receptor-mediated activation of B cells in human blood (CD69 expression)
- method_description: Inhibition of B cell activation in whole blood measured by CD69 expression
- Format: cell-based
- condition_info: anti-IgM stimulation, 20 h, 50% decrease of CD69-positive cells that are also CD20-positive
pIC50: −log10 of the molar value.
readout: pIC50

Cn1cc(-c2cccc(-n3ncc4cc(C(C)(C)C)cc(F)c4c3=O)c2CO)nc(Nc2cnn(CC(F)F)c2)c1=O [Example I-84] : 7.70
CN(C)C(=O)C(C)(C)c1ccc(Nc2cc(-c3cccc(-n4ccc5cc(C6CC6)cc(F)c5c4=O)c3CO)cn(C)c2=O)nc1 [Example I-70] : 7.66
CCN1CCN(c2ccc(Nc3cc(-c4cccc(N5CCc6cc(C7CC7)cc(F)c6C5=O)c4CO)cn(C)c3=O)nc2)CC1 [Example I-12] : 7.37
CC(O)Cn1cc(Nc2nc(-c3cccc(-n4ncc5cc(C(C)(C)C)cc(F)c5c4=O)c3CO)cn(C)c2=O)cn1 (centres unmarked) [Example I-83] : 8.00
CC1CCOC(Nc2cc(-c3cccc(-n4ncc5cc(C(C)(C)C)cc(F)c5c4=O)c3CO)cn(C)c2=O)=N1 (centres unmarked) [Example I-46] : 5.37

A: CNC(=O)C(C)(C)c1ccc(Nc2cc(-c3cccc(-n4ncc5cc(C(C)(C)C)cc(F)c5c4=O)c3CO)cn(C)c2=O)nc1 [Example I-32]
B: Cn1cc(-c2cccc(-n3ncc4cc(C(C)(C)C)cc(F)c4c3=O)c2CO)cc(Nc2ccc(OCCO)cn2)c1=O [Example I-19]
Query: Field: lower pIC50 | Options: A / B The response must carry the label of the picked entry.
Reply: A

1: Cn1cc(-c2cccc(-n3ncc4cc(C(C)(C)C)cc(F)c4c3=O)c2CO)cc(Nc2ccn(C(C)(C)C)c(=O)n2)c1=O [Example I-50]
2: Cn1cc(-c2cccc(-n3ccc4cc(C5CC5)cc(F)c4c3=O)c2CO)cc(Nc2ccc(C(=O)N3CCOCC3)cn2)c1=O [Example I-51]
Query: For the two items 1 and 2 , which reports the higher pIC50 value? Output the label that corresponds to your choice.
Reply: 2

a: Cn1cc(-c2cccc(-n3ccc4cc(C5CC5)cc(Cl)c4c3=O)c2CO)cc(Nc2ccc(C(=O)N3CCOCC3)cn2)c1=O [Example I-53]
b: Cn1cc(-c2cccc(N3CCc4cc(C5CC5)cc(C#N)c4C3=O)c2CO)cc(Nc2ccc(S(C)(=O)=O)cn2)c1=O [Example I-13]
Query: Among a and b , which shows a numerically higher pIC50 result? Reply briefly: the label of your chosen item.
Reply: a
